# ASSAY: in vivo
# Parameters: species or system female C3H/HeN mice
# CONDITIONS: mouse, brain, iv, 40 mg/kg, 40 mg.kg^-1 i.v., 0.5h after dose, individual animals IV1-IV4, read-out: Brain product Ic concentration
ENDPOINT_LABEL: concentration at 0.5 h (ng/g)
Quick note: give the figure in ng/g, leave out the unit.

Exercise: Give its concentration at 0.5 h value. Item: CO[C@H]1C(=O)[C@]2(C)[C@@H](OC)C[C@H]3OC[C@@]3(OC(C)=O)[C@H]2[C@H](OC(=O)c2ccccc2)[C@]2(O)C[C@H](OC(=O)[C@H](O)[C@@H](NC(=O)OC(C)(C)C)c3ccccc3)C(C)=C1C2(C)C [product Ia]
Key: 7260

Cited source: patent EP0982027A1
